test system: BT-549; assay: NCI tumour cell line growth inhibition, 48 h
Activity calls are given as the source filed them. No stated cut-off is given here; in the data, active = GI50 up to about 1.1 µM and inactive = higher.
Outcomes: t (active), f (inactive)

compound	assigned_label
O=C1CC(CC(O)C(O)C(O)CO)CC(=O)N1 (configuration not stated)	f
CC1(CCc2ccccc2)CC1(Br)Br (configuration not stated)	f
COc1ccc([N+](=O)[O-])cc1[I+]c1cc([N+](=O)[O-])ccc1OC	f
CC1(CCOCc2ccccc2)NC(=O)NC1=O (configuration not stated)	f
CC(C)C[C@H](NC(=O)[C@@H](N)Cc1cccc2ccccc12)B(O)O	t
COc1cc(/C=N/N=C2NCCCN2)ccc1O	f
CC(C)CCCC(C)[C@H]1CC[C@H]2N/C(=N/Cc3ccccc3)CCC[C@]12C (some centres not stated)	f
